// Alpha-galactosidase (Coffea arabica, UniProt Q42656) pIC50 records
// returns pIC50 (minus log10 of molar concentration), number only

// solved cases for pIC50 follow
Please state recorded pIC50 (tested on Alpha-galactosidase (Coffea arabica, UniProt Q42656)) of `COc1ccc2cc(-c3cn(C[C@H]4NC[C@@H](O)[C@H]4O)nn3)ccc2c1`
Sequence (Q42656 whole entry): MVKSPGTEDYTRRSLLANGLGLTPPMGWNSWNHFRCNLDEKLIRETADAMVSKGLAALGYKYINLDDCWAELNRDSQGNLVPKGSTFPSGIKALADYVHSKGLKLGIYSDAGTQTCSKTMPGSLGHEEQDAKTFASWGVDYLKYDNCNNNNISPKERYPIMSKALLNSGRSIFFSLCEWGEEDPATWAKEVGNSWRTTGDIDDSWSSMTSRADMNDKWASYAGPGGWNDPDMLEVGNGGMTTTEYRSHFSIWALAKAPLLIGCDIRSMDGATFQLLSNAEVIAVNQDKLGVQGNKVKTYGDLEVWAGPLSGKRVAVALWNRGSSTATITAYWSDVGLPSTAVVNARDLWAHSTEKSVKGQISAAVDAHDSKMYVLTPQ
4.77

Please state recorded pIC50 (tested on Alpha-galactosidase (Coffea arabica, UniProt Q42656)) of `[N-]=[N+]=NC[C@H]1NC[C@@H](O)[C@H]1O`
3.90

Turning to the following molecule.
Please state recorded pIC50 (tested on Alpha-galactosidase (Coffea arabica, UniProt Q42656)) of `O[C@@H]1[C@H](O)CN[C@@H]1Cn1cc(-c2ccccc2)nn1`
4.85

====

organism: Bos taurus; test: Inhibition of bovine kidney alpha-L-fucosidase at 1 mM using p-nitrophenyl glycopyranoside preincubated for 5 mins followed by substrate addition measured after 20 mins by visible absorption spectroscopic method relative to control
The source made the active and inactive calls. The rule behind the calls is not given here.
QUANTITY MEASURED: inhibition

Quick check: inhibition of `O[C@@H]1[C@H](O)CN[C@@H]1Cn1cc(-c2ccccc2)nn1` ?
17%

Quick check: inhibition of `[N-]=[N+]=NC[C@@H]1NC[C@@H](O)[C@H]1O` ?
33%

Quick check: inhibition of `O[C@@H]1[C@H](O)CN[C@H]1CNC(=S)Nc1ccccc1` ?
inactive

Quick check: inhibition of `[N-]=[N+]=NC[C@H]1NC[C@@H](O)[C@H]1O` ?
inactive

Quick check: inhibition of `O[C@@H]1[C@H](O)CN[C@@H]1c1cn(Cc2ccccc2)nn1` ?
84%

Quick check: inhibition of `O=C(NC[C@@H]1NC[C@@H](O)[C@H]1O)c1ccccc1` ?
15%

Further cases:
Quick check: inhibition of `O[C@H]1[C@@H](O)CN[C@@H]1Cn1cc(-c2ccccc2)nn1` ?
inactive

Quick check: inhibition of `O[C@@H]1[C@H](O)CN[C@H]1c1cn(Cc2ccccc2)nn1` ?
71%

Quick check: inhibition of `O[C@@H]1[C@H](O)CN[C@H]1Cn1cc(-c2ccccc2)nn1` ?
40%

Quick check: inhibition of `O[C@@H]1[C@H](O)CN[C@@H]1CCn1cc(-c2ccccc2)nn1` ?
49%

Quick check: inhibition of `O[C@@H]1[C@@H](c2cn(Cc3ccccc3)nn2)NC[C@@H]1O` ?
21%

====

system: Aspergillus niger; test: Inhibition of Aspergillus niger amyloglucosidase at 1 mM using p-nitrophenyl glycopyranoside preincubated for 5 mins followed by substrate addition measured after 20 mins by visible absorption spectroscopic method relative to control
Activity calls are given as the source filed them. The calls are words filed in the database; no cut-off is given here.
QUANTITY MEASURED: inhibition

// solved cases for inhibition follow
Please state recorded inhibition (tested on Aspergillus niger) of `O[C@@H]1[C@H](O)CN[C@@H]1CCn1cc(-c2ccccc2)nn1`
inactive

Please state recorded inhibition (tested on Aspergillus niger) of `O[C@@H]1[C@@H](c2cn(Cc3ccccc3)nn2)NC[C@@H]1O`
inactive

Please state recorded inhibition (tested on Aspergillus niger) of `[N-]=[N+]=NC[C@@H]1NC[C@@H](O)[C@H]1O`
inactive

Please state recorded inhibition (tested on Aspergillus niger) of `O[C@@H]1[C@H](O)CN[C@H]1CNC(=S)Nc1ccccc1`
18%

Please state recorded inhibition (tested on Aspergillus niger) of `[N-]=[N+]=NC[C@H]1NC[C@@H](O)[C@H]1O`
inactive

Please state recorded inhibition (tested on Aspergillus niger) of `O=C(NC[C@@H]1NC[C@@H](O)[C@H]1O)c1ccccc1`
inactive

Please state recorded inhibition (tested on Aspergillus niger) of `O[C@@H]1[C@H](O)CN[C@H]1c1cn(Cc2ccccc2)nn1`
inactive

Please state recorded inhibition (tested on Aspergillus niger) of `O[C@H]1[C@@H](O)CN[C@@H]1Cn1cc(-c2ccccc2)nn1`
inactive

Further cases:
Please state recorded inhibition (tested on Aspergillus niger) of `O[C@@H]1[C@H](O)CN[C@@H]1c1cn(Cc2ccccc2)nn1`
inactive

Please state recorded inhibition (tested on Aspergillus niger) of `O[C@@H]1[C@H](O)CN[C@@H]1Cn1cc(-c2ccccc2)nn1`
inactive

Please state recorded inhibition (tested on Aspergillus niger) of `O[C@@H]1[C@H](O)CN[C@H]1Cn1cc(-c2ccccc2)nn1`
38%
